The values you see were collected from patent US8642774B2.

- SYSTEM_UNDER_TEST: human recombinant mGluR5 (Homo sapiens, UniProt P41594)
- Construct: expressed in transfected cells; host or cells: HEK 293 cell line, cultured with tetracycline, hygromycin and geneticin; tetracycline is withdrawn 3-7 days before the assay
- Sequence (P41594 21-1212): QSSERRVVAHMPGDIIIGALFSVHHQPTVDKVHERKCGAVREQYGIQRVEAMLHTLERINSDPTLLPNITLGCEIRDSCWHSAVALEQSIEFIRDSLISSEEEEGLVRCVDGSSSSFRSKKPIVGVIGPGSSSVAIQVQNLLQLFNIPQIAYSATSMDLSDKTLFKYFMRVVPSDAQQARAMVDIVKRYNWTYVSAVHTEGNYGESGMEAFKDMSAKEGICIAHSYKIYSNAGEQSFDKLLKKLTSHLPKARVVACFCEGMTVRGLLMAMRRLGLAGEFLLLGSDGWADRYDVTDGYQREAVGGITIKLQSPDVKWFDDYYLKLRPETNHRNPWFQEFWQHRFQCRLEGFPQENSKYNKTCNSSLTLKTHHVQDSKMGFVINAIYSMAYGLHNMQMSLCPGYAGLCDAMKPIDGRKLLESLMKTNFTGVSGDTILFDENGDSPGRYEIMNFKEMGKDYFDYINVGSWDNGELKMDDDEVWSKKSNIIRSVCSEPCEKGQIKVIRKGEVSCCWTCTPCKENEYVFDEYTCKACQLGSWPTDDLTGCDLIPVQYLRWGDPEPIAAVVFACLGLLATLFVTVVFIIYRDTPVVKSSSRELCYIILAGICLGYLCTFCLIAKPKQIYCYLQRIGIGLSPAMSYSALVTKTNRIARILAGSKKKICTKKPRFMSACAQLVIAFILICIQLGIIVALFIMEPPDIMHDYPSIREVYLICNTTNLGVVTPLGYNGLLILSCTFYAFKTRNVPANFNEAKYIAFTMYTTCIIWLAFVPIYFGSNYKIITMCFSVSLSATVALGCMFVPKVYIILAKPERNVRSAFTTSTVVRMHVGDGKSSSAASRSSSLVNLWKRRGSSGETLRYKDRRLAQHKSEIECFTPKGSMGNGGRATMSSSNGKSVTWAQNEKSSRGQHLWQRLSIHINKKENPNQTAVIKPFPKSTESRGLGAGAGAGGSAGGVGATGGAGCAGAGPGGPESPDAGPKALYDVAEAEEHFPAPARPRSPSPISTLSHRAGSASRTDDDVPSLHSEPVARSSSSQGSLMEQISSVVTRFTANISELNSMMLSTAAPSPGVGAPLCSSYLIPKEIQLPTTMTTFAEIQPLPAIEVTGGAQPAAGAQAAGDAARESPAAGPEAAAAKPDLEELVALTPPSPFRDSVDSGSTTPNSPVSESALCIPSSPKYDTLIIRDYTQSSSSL
- EXPERIMENT: positive modulation of mGluR5, calcium based FLIPR assay
- Type: cell-based
- APPLIED_CONDITIONS: EC50 of the modulation; HEK 293 cell line expressing human recombinant mGluR5; peak height of Ca fluorescence signal after glutamate at approx. 5% basal stimulation; read-out: EC50
Below is a list of entries, each paired with its recorded pEC50 value.
Bear in mind: pEC50 is minus log10 of a mol/L concentration; give just that figure.

Study these solved cases before continuing.
{"MOLECULE": "O=C(Cn1nc(-c2ccc(F)cc2)nc1-c1ccc(F)cc1)N1CCc2cc(F)ccc2C1", "pEC50": 6.05}
{"MOLECULE": "Cc1nc2c(o1)CCN(C(=O)Cn1nc(-c3ccc(F)c(C)c3)nc1-c1ccccc1)CC2", "pEC50": 7.55}
{"MOLECULE": "CCCCc1nc(-c2ccc(F)c(C)c2)nn1CC(=O)N1CCc2nc(C)sc2CC1", "pEC50": 6.95}
{"MOLECULE": "O=C(Cn1nc(-c2ccc(F)cc2)nc1-c1ccc(F)cc1)N1CCC(N2Cc3c(Cl)cccc3NC2=O)CC1", "pEC50": 5.85}
{"MOLECULE": "COc1cnc(C2=CCN(C(=O)Cn3nc(-c4ccc(F)c(C)c4)nc3C(C)C)CC2)nc1", "pEC50": 5.94}

What value of pEC50 has been recorded for this entry: Cc1nc2c(s1)CN(C(=O)Cn1nc(-c3ccc(F)c(C)c3)nc1CCC(C)C)C2
6.47

What value of pEC50 has been recorded for this entry: O=C(Cn1nc(-c2ccc(F)cc2)nc1-c1ccc(F)cc1)N1CCC(Oc2ccc3c(c2)OCO3)CC1
6.03

What value of pEC50 has been recorded for this entry: Nc1nc2c(s1)CN(C(=O)Cn1nc(-c3ccc(F)cc3)nc1-c1ccc(F)cc1)CC2
5.91

What value of pEC50 has been recorded for this entry: COc1ccc2c(c1)CN(C(=O)Cn1nc(-c3ccc(F)cc3)nc1-c1ccc(F)cc1)CC2
5.90

What value of pEC50 has been recorded for this entry: O=C(Cn1nc(-c2ccc(F)cc2)nc1-c1ccc(F)cc1)N1CCC(c2noc3ccc(F)cc23)CC1
6.19

====

- SYSTEM_UNDER_TEST: human recombinant mGluR5 (Homo sapiens, UniProt P41594)
- Construct: expressed in transfected cells; host or cells: HEK 293 cell line, cultured with tetracycline, hygromycin and geneticin; tetracycline is withdrawn 3-7 days before the assay
- EXPERIMENT: positive modulation of mGluR5, calcium based FLIPR assay
- Format: cell-based
- APPLIED_CONDITIONS: EC50 of the modulation; HEK 293 cell line expressing human recombinant mGluR5; peak height of Ca fluorescence signal after glutamate at approx. 5% basal stimulation; read-out: EC50
MEASUREMENT_TYPE: EC50
Please don't drop the unit; write it after the number.

Study these solved cases before continuing.
{"MOLECULE": "COc1ccc(-c2nc(-c3ccccc3)n(CC(=O)N3Cc4nc(C)oc4C3)n2)cc1 [Example 7.03.132]", "EC50": "95 nM"}
{"MOLECULE": "COc1cccc(N2CCN(C(=O)Cn3nc(-c4ccc(F)cc4)nc3-c3ccc(F)cc3)CC2=O)c1 [Example 7.01.03.]", "EC50": "283 nM"}
{"MOLECULE": "O=C(Cn1nc(-c2ccc(F)cc2)nc1-c1ccc(F)cc1)N1CCN(C2=NCCS2)CC1 [Example 7.03.046.]", "EC50": "356 nM"}
{"MOLECULE": "O=C(Cn1nc(-c2ccc(F)cc2)nc1-c1ccc(F)cc1)N1CCN(C2=NCCCS2)CC1 [Example 7.05.01.]", "EC50": "1710 nM"}
{"MOLECULE": "COc1ccc2c(c1)CCN(C(=O)Cn1nc(-c3ccc(F)cc3)nc1-c1ccc(F)cc1)C2 [Example 7.02.44.]", "EC50": "211 nM"}

What value of EC50 has been recorded for this entry: O=C(Cn1nc(-c2ccc(F)cc2)nc1-c1ccc(F)cc1)N1CCc2cccc(F)c2C1 [Example 7.02.10.]
965 nM

What value of EC50 has been recorded for this entry: Cc1nc2c(s1)CC(C)N(C(=O)Cn1nc(-c3ccc(F)c(C)c3)nc1-c1ccccc1)CC2 (centres unmarked) [Example 7.02.81.]
175 nM

What value of EC50 has been recorded for this entry: O=C(Cn1nc(-c2ccc(F)cc2)nc1-c1ccc(F)cc1)N1CCC(c2nnc(-c3ccc(F)cc3)o2)CC1 [Example 7.02.22.]
746 nM

What value of EC50 has been recorded for this entry: CC(C)NC(=O)Nc1nc2c(s1)CN(C(=O)Cn1nc(-c3ccc(F)cc3)nc1-c1ccc(F)cc1)CC2 [Example 7.02.16.]
1360 nM

What value of EC50 has been recorded for this entry: CCNC(=O)Nc1nc2c(s1)CN(C(=O)Cn1nc(-c3ccc(F)cc3)nc1-c1ccc(F)cc1)CC2 [Example 7.02.15.]
646 nM

What value of EC50 has been recorded for this entry: COc1cc(C2CCN(C(=O)Cn3nc(-c4ccc(F)cc4)nc3-c3ccc(F)cc3)CC2)ncn1 [Example 7.03.026.]
987 nM
